Hey, just so you know, these numbers are from patent US12692261B2.

# target: full-length human CSNK1A1 (Homo sapiens, UniProt P48729)
# Construct: N-terminal Glutathion-S-Transferase (GST) and full-length human CSNK1A1; purchased Life Technologies PV4174; host or cells: baculovirus infected insect cells
# Sequence (P48729 whole entry): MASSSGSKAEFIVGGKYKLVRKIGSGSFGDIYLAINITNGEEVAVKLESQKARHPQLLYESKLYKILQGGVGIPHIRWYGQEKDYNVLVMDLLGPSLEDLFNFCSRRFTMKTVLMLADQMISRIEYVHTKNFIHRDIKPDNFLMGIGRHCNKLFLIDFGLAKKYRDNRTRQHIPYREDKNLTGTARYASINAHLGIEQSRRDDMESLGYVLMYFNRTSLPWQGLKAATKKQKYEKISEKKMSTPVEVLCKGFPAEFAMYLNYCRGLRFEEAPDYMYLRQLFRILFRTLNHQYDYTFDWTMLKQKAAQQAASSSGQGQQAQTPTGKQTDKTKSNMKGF
# assay-summary: CSNK1A1 High ATP Assay (ADP-Glo, 1 mM ATP);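 further: 30 min kinase reaction at 22 °C with 100 µM peptide substrate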
# Format: biochemical
# measurement-setup: Table 3, read-out: CSNK1A1 high ATP assay IC50 [mol/l] (median)
pIC50: −log10 of the molar value.

molecule: O=C(Nc1cc(-c2[nH]c3c(OCC(F)(F)F)ncnc3c2-c2ccccn2)ccn1)C(CC(F)F)c1ccc(F)cc1 (single isomer, unassigned) [Example 123]
pIC50: 7.85
--
molecule: O=C(Nc1cc(-c2[nH]c3c(OCC(F)F)ccnc3c2-c2ccccn2)ccn1)C(CC(F)F)c1ccc(F)cc1 (racemic) [Example 75]
pIC50: 8.36
--
molecule: O=C(Nc1cc(-c2[nH]c3cccnc3c2-c2ccccc2)ccn1)C(CC(F)F)c1ccc(F)cc1 (single isomer, unassigned; (-)) [Example 23]
pIC50: 5.43
--
molecule: O=C(Nc1cc(-c2[nH]c3cc(F)cnc3c2-c2ccccn2)ccn1)C(CC(F)F)c1ccc(F)cc1 (racemic) [Example 16]
pIC50: 7.66

----------
Documented IC50 across a set of compounds
# target: full-length human CSNK1A1 (Homo sapiens, UniProt P48729)
# Construct: N-terminal Glutathion-S-Transferase (GST) and full-length human CSNK1A1; purchased Life Technologies PV4174; host or cells: baculovirus infected insect cells
# assay-summary: CSNK1A1 High ATP Assay (ADP-Glo, 1 mM ATP);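 further: 30 min kinase reaction at 22 °C with 100 µM peptide substrate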
# Assay type: biochemical
# measurement-setup: Table 3, read-out: CSNK1A1 high ATP assay IC50 [mol/l] (median)

compound: CC(C)(O)c1cc(F)nc2c(-c3ccccn3)c(-c3ccnc(NC(=O)C(CC(F)F)c4ccc(F)cc4)c3)[nH]c12 (single isomer, unassigned) [Example 100]
target: full-length human CSNK1A1 (Homo sapiens, UniProt P48729)
units-of-measure: nM
IC50: 33.6
//
compound: Cc1cnc2c(-c3ccccn3)c(-c3ccnc(NC(=O)C(CC(F)F)c4ccc(F)cc4)c3)[nH]c2c1 (racemic) [Example 7]
target: full-length human CSNK1A1 (Homo sapiens, UniProt P48729)
units-of-measure: nM
IC50: 8.12
//
compound: COc1cnc2c(-c3ccccn3)c(-c3ccnc(NC(=O)C(CC(F)F)c4ccc(F)cc4)c3)[nH]c2n1 (single isomer, unassigned) [Example 103]
target: full-length human CSNK1A1 (Homo sapiens, UniProt P48729)
units-of-measure: nM
IC50: 1.97

----------
Documented pIC50 across a set of molecules
# target: full-length human CSNK1A1 (Homo sapiens, UniProt P48729)
# Construct: N-terminal Glutathion-S-Transferase (GST) and full-length human CSNK1A1; purchased Life Technologies PV4174; host or cells: baculovirus infected insect cells
# assay-summary: CSNK1A1 Assay 2 (ADP-Glo, 1 μM ATP, substrate biotin-Ahx-KRRRAL-pS-VASLPGL)
# Assay type: biochemical
# measurement-setup: Table 3, read-out: CSNK1A1 Assay 2 IC50 [mol/l] (median)
pIC50: −log10 of the molar value.

molecule: COc1cc(F)nc2c(-c3ccccn3)c(-c3ccnc(NC(=O)C(CC(F)F)c4ccc(F)cc4)c3)[nH]c12 (single isomer, unassigned; (+)) [Example 40]
pIC50: 8.43
--
molecule: O=C(Nc1cc(-c2[nH]c3c(OCC(F)(F)F)ncnc3c2-c2ccccn2)ccn1)C(CC(F)(F)F)c1ccc(F)cc1 (single isomer, unassigned) [Example 127]
pIC50: 7.07
--
molecule: O=C(Nc1cc(-c2[nH]c3cccnc3c2-c2cccc(F)n2)ccn1)C(CC(F)F)c1ccc(F)cc1 (racemic) [Example 25]
pIC50: 8.56

----------
# target: wild-type Epidermal Growth Factor Receptor (EGFR) (Homo sapiens)
# Construct: a fragment of human EGFR (amino acids R669 to A1210); made in house; host or cells: Sf9 insect cells
# Sequence (P00533 669-1210): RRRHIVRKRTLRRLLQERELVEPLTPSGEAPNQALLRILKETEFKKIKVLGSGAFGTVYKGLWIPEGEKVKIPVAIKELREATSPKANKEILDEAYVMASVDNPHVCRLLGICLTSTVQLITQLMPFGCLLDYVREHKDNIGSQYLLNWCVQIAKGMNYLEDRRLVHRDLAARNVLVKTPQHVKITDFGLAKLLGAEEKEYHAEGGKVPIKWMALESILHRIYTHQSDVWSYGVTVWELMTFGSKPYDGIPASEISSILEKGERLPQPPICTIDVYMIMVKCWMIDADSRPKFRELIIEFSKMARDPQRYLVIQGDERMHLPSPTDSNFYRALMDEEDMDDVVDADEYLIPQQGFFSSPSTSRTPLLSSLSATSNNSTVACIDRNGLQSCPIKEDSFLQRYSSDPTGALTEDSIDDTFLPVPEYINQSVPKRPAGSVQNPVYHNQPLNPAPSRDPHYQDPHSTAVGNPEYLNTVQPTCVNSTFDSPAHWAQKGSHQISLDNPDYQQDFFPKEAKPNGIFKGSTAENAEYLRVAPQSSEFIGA
# assay-summary: WT-EGFR Kinase Assay (TR-FRET, 2 mM ATP)
# Type: biochemical
# measurement-setup: EGFR Wildtyp 2 mM ATP IC50 [mol/l] (median), Table 4
Documented IC50 across a set of compounds

compound: O=C(Nc1cc(-c2[nH]c3nc(F)cnc3c2-c2ccccn2)ccn1)C(CC(F)F)c1ccc(F)cc1 (racemic) [Example 60]
IC50: > 20 µM
--
compound: Cc1cnc2c(-c3ccccn3)c(-c3ccnc(NC(=O)C(CC(F)F)c4ccc(F)cc4)c3)[nH]c2c1 (racemic) [Example 7]
IC50: > 20 µM
--
compound: O=C(Nc1cc(-c2[nH]c3c(C4CCCO4)cc(F)nc3c2-c2ccccn2)ccn1)C(CC(F)F)c1ccc(F)cc1 (single isomer, unassigned) [Example 116]
IC50: 15.1 µM

----------
pIC50: −log10 of the molar value.
Observed pIC50 values for full-length human CSNK1D (Homo sapiens, UniProt P48730) are listed in what follows.
recorded-endpoint: pIC50

compound: O=C(Nc1cc(-c2[nH]c3c(N4CCNCC4)ccnc3c2-c2ccccn2)ccn1)C(CC(F)F)c1ccc(F)cc1 (racemic) [Example 92]
recorded-endpoint: pIC50
numeric-readout: 8.20

compound: O=C(Nc1cc(-c2[nH]c3nccnc3c2-c2ccccn2)ccn1)C(CC(F)(F)F)c1ccc(F)cc1 (single isomer, unassigned) [Example 121]
recorded-endpoint: pIC50
numeric-readout: 7.20

compound: O=C(Nc1cc(-c2[nH]c3c(OCC(F)F)cc(F)nc3c2-c2ccccn2)ccn1)C(CC(F)F)c1ccc(F)cc1 (racemic) [Example 28]
recorded-endpoint: pIC50
numeric-readout: 8.40

compound: O=C(Nc1cc(-c2[nH]c3c(OC[C@@H]4COCCO4)cc(F)nc3c2-c2ccccn2)ccn1)C(CC(F)F)c1ccc(F)cc1 (mixture of isomers) [Example 57]
recorded-endpoint: pIC50
numeric-readout: 8.20

compound: O=C(Nc1cc(-c2[nH]c3ncc(F)nc3c2-c2ccccn2)ccn1)C(CC(F)F)c1ccc(F)cc1 (single isomer, unassigned) [Example 64]
recorded-endpoint: pIC50
numeric-readout: 7.39

compound: O=C(Nc1cc(-c2[nH]c3cncnc3c2-c2ccccn2)ccn1)C(CC(F)F)c1ccc(F)cc1 (racemic) [Example 13]
recorded-endpoint: pIC50
numeric-readout: 7.91

compound: O=C(Nc1cc(-c2[nH]c3cc(Cl)cnc3c2-c2ccccn2)ccn1)C(CC(F)F)c1ccc(F)cc1 (single isomer, unassigned) [Example 89]
recorded-endpoint: pIC50
numeric-readout: 6.98

compound: O=C(Nc1cc(-c2[nH]c3c(OCC(F)F)ncnc3c2-c2ccccn2)ccn1)C(CC(F)F)c1ccc(F)cc1 (single isomer, unassigned) [Example 80]
recorded-endpoint: pIC50
numeric-readout: 7.58

compound: O=C(Nc1cc(-c2[nH]c3cc(F)cnc3c2-c2ccccc2)ccn1)C(CC(F)F)c1ccc(F)cc1 (single isomer, unassigned; (-)) [Example 20]
recorded-endpoint: pIC50
numeric-readout: 7.32

compound: O=C(Nc1cc(-c2[nH]c3c(OC4CC4)cc(F)nc3c2-c2ccccn2)ccn1)C(CC(F)F)c1ccc(F)cc1 (single isomer, unassigned) [Example 43]
recorded-endpoint: pIC50
numeric-readout: 8.12

compound: O=C(Nc1cc(-c2[nH]c3nc(OC(F)F)cnc3c2-c2ccccn2)ccn1)C(CC(F)F)c1ccc(F)cc1 (single isomer, unassigned) [Example 106]
recorded-endpoint: pIC50
numeric-readout: 8.21

compound: Cc1cc2[nH]c(-c3ccnc(NC(=O)C(CC(F)F)c4ccc(F)cc4)c3)c(-c3ccccn3)c2nc1F (single isomer, unassigned) [Example 34]
recorded-endpoint: pIC50
numeric-readout: 8.16

----------
Observed pIC50 values for full-length human CSNK1D (Homo sapiens, UniProt P48730) are listed in what follows.
pIC50: −log10 of the molar value.
recorded-endpoint: pIC50

compound: Cc1ccc2[nH]c(-c3ccnc(NC(=O)C(CC(F)F)c4ccc(F)cc4)c3)c(-c3ccccn3)c2n1 (single isomer, unassigned) [Example 5]
numeric-readout: 8.15

compound: O=C(Nc1cc(-c2[nH]c3c(CC4CC4)cc(F)nc3c2-c2ccccn2)ccn1)C(CC(F)F)c1ccc(F)cc1 (single isomer, unassigned) [Example 47]
numeric-readout: 7.23

compound: O=C(Nc1cc(-c2[nH]c3c(OC[C@H]4COCCO4)cc(F)nc3c2-c2ccccn2)ccn1)C(CC(F)F)c1ccc(F)cc1 (single isomer, unassigned) [Example 51]
numeric-readout: 8.39

compound: Cc1ccnc2c(-c3ccccn3)c(-c3ccnc(NC(=O)C(CC(F)F)c4ccc(F)cc4)c3)[nH]c12 (centres unmarked)
numeric-readout: 8.13

compound: CC(C)(O)c1cc(F)nc2c(-c3ccccn3)c(-c3ccnc(NC(=O)C(CC(F)F)c4ccc(F)cc4)c3)[nH]c12 (racemic) [Example 98]
numeric-readout: 8.16

----------
# target: full-length human CSNK1A1 (Homo sapiens, UniProt P48729)
# Construct: N-terminal Glutathion-S-Transferase (GST) and full-length human CSNK1A1; purchased Life Technologies PV4174; host or cells: baculovirus infected insect cells
# assay-summary: CSNK1A1 Assay 2 (ADP-Glo, 1 μM ATP, substrate biotin-Ahx-KRRRAL-pS-VASLPGL)
# Format: biochemical
# measurement-setup: Table 3, read-out: CSNK1A1 Assay 2 IC50 [mol/l] (median)
pIC50: −log10 of the molar value.
recorded-endpoint: pIC50

compound: O=C(Nc1cc(-c2[nH]c3c(C4CCCO4)cc(F)nc3c2-c2ccccn2)ccn1)C(CC(F)F)c1ccc(F)cc1 (single isomer, unassigned) [Example 117]
recorded-endpoint: pIC50
numeric-readout: 8.00
--
compound: O=C(Nc1cc(-c2[nH]c3ccc(F)nc3c2-c2ccc(F)cn2)ccn1)C(CC(F)F)c1ccc(F)cc1 (single isomer, unassigned; (-)) [Example 110]
recorded-endpoint: pIC50
numeric-readout: 7.32
--
compound: O=C(Nc1cc(-c2[nH]c3c(N4CCNCC4)ccnc3c2-c2ccccn2)ccn1)C(CC(F)F)c1ccc(F)cc1 (racemic) [Example 92]
recorded-endpoint: pIC50
numeric-readout: 8.63
